Reference source for all entries: ChEMBL document CHEMBL1201862

Test system: MOLT-4
Protocol Summary: NCI tumour cell line growth inhibition, 48 h
Activity calls are given as the source filed them. Cut-off read from the data, not from the text of the source: active = GI50 up to about 1.1 µM and inactive = higher.
Outcome field: choose from T (active), F (inactive)

## Input What is the recorded call for this compound in the test? COC(=O)CCCC(=O)O
## Output F

## Input What call does the record list for OC1c2ccccc2[C@@H]2[C@H]1[C@@H](c1ccccc1)C1(Cc3ccccc3C1O)[C@H]2c1ccccc1 (stereo not given in full) ?
## Output F

## Input Outcome? Oc1ccc(NCn2c(=S)sc3ccccc32)cc1
## Output F

## Input Please let me know the test result on file for O=C1/C(=C/c2ccc3c(c2)OCO3)SC2C=Nc3ccccc3N12 (stereo not given) .
## Output F

## Input For O=C1CC2CCC(C1)[S+]2[O-] (stereo not given) , what call appears in the results of this test?
## Output F

## Input How was OCC(O)CNc1ccnc2cc(Cl)ccc12 (stereo not given) classified in this test?
## Output F

## Input What classification did OCC(O)COc1c(Cl)ccc(Cl)c1Cl (stereo not given) end up with in this test?
## Output F

## Input Test call for this compound, please: C#CCn1c(=O)ccn(/C(=C\C(=O)OCC)C(=O)OCC)c1=O
## Output F

## Input Which result was noted for this compound in the test: COC(=O)C1(CCC(C)=O)CCCCCC1=O (stereo not given)
## Output F

## Input Test call for this compound, please: Cc1cccc(C(O)c2ccncc2)c1O (stereo not given)
## Output F

## Input Status in this test for O=C(c1nc2ccc(Cl)cc2[nH]c1=O)C(O)c1ccco1 (stereo not given) ?
## Output F

## Input Could you kindly confirm the outcome this assay logged for Cc1ccc2nc3ccccc3c(C3C4C(=O)N(c5ccc(Br)cc5Cl)C(=O)C4ON3C(C(N)=O)c3ccccc3)c2c1 (stereo not given) ?
## Output F

## Input Dear all, I need the recorded test outcome for CC(=O)OC1CC2(O)C(CCC3(C)C(c4ccc(=O)oc4)CCC32O)C2(C)C1=CC(O)C1OC12 (stereo not given) , thank you.
## Output T

## Input So what was the verdict on Cc1cc2c(cc1-c1cc3c(cc1C)C(C(C)C)=C(O)C(=O)/C3=C\Nc1c(C)n(C)n(-c3ccccc3)c1=O)/C(=C/Nc1c(C)n(C)n(-c3ccccc3)c1=O)C(=O)C(O)=C2C(C)C in this test?
## Output F

## Input Recorded test call requested for C[C@@H]1CCC2[C@@H](C)[C@@H](O[C@H]3O[C@@H]4O[C@@]5(C)CCC6[C@H](C)CCC([C@H]3C)[C@]64OO5)O[C@@H]3O[C@@]4(C)CCC1[C@@]23OO4 (stereo not given in full)
## Output F

## Input Assay result, entry CO[P@]1(=O)O[C@@H](c2ccccc2)[C@H](O)[C@@]1(O)c1ccccc1 — outcome?
## Output F

## Input Look up the recorded call for CN1c2ccccc2C(=O)NC12CCN(CCCC(=O)c1ccc(F)cc1)CC2 in this test.
## Output F

## Input Please let me know the test result on file for CCc1cccc(C(C)(C)C)c1NC(=S)N/C=C(/C#N)C(N)=O .
## Output F

## Input Give the logged outcome of this assay for the following compound: CC1(CO)OC(n2cc(C(=O)NC(=O)OCc3ccccc3)c(=O)[nH]c2=O)CC1O (stereo not given)
## Output F

## Input Fill in: this test's call for CC(C)=NNc1snnc1C(N)=O is ___
## Output F

## Input Identify the outcome logged in this assay for the compound shown: C=C=C(C(=O)OC)[S+]([O-])c1ccc([N+](=O)[O-])cc1[N+](=O)[O-] (stereo not given)
## Output F

## Input For Cc1cc(NS(=O)(=O)c2ccc(Nc3c4ccccc4nc4c(C(=O)Nc5ccc(S(=O)(=O)N=C(N)N)cc5)ccc(Cl)c34)cc2)no1 , what call appears in the results of this test?
## Output F

## Input Dear all, I need the recorded test outcome for CN(O)C(=O)Cc1ccc(OCc2cccc(Cl)c2)cc1 , thank you.
## Output F

## Input # outcome recorded in this test, key = O=NN(CCCl)C(=O)NC1CCCCC1
## Output F

## Input Test call for this compound, please: Nc1ccc2nc(-c3cccc(C(F)(F)F)c3)cc(O)c2c1
## Output F

## Input Can you look up the reported call for Oc1c(CNCCCN2CCCC2)cc(Cl)c2cccnc12 for me?
## Output F

## Input Field: outcome | Entry: COc1cc(CCCOC2OC(COC3OCC(O)C(O)C3O)C(O)C(O)C2O)cc2cc(-c3ccc4c(c3)OCO4)oc12 (stereo not given)
## Output F

## Input How did this test come out for OCCCNc1ccnc2cc(Cl)ccc12 ?
## Output F

## Input Recorded call for O=S(=O)(c1cccc(N=C=S)c1)c1cccc(N=C=S)c1 ?
## Output F

## Input Record lookup: outcome of this test for C#Cc1cccc(N2C(=O)CC(=P(c3ccccc3)(c3ccccc3)c3ccccc3)C2=O)c1 ?
## Output F

## Input Per the assay record, what outcome was assigned to O=c1cc(-c2ccccc2)oc2ccc(Cl)cc12 ?
## Output F

## Input Which result was noted for this compound in the test: CC(C)NC(=O)CN1CCN(C2=C(Cl)C(=O)c3c(O)ccc(O)c3C2=O)CC1
## Output T

## Input Assay outcome for Nc1nc(N)c(-c2ccccc2)c(C(=O)Nc2ccccc2)n1 : what was it?
## Output F

## Input Which result was noted for this compound in the test: O=C1C=CC(=O)c2c1ccc1c3ccccc3n(-c3ccccc3[N+](=O)[O-])c21
## Output T

## Input What did this assay record as the result for COc1cc2c(c(OC)c1O)-c1ccc(SC)c(=O)cc1C(NC(C)=O)CC2 (stereo not given) ?
## Output T

## Input Dear colleague, could you share the recorded outcome for Cc1ccc(-c2cc(-c3ccco3)c(C#N)c(O)n2)cc1 when you have a moment?
## Output F

## Input Given Nc1c(-c2ccc(Cl)cc2Cl)[n+]([O-])c2ccccc2[n+]1[O-] , state the outcome it received in this test.
## Output F

## Input What did this assay record as the result for CC(C)(C)C1CC[C@H]2c3c([nH]c4ccccc34)[C@H]3C(=O)N(c4ccc(F)cc4)C(=O)[C@H]3[C@H]2C1 (stereo not given in full) ?
## Output F

## Input Outcome? CCCCn1c2c(n(CCCC)c1=S)-c1c(n(CCCC)c(=S)n1CCCC)S[Se][Se]S2
## Output F

## Input Lab log entry: OC(CN1CCCCC1)c1ccc(/C=C/c2ccc(Cl)cc2)cc1 (stereo not given) — outcome as called in the assay?
## Output F
